Entries and their pIC50 values follow.
Assay system: Dual specificity protein kinase CLK4 (Homo sapiens, UniProt Q9HAZ1)
Sequence (Q9HAZ1 whole entry): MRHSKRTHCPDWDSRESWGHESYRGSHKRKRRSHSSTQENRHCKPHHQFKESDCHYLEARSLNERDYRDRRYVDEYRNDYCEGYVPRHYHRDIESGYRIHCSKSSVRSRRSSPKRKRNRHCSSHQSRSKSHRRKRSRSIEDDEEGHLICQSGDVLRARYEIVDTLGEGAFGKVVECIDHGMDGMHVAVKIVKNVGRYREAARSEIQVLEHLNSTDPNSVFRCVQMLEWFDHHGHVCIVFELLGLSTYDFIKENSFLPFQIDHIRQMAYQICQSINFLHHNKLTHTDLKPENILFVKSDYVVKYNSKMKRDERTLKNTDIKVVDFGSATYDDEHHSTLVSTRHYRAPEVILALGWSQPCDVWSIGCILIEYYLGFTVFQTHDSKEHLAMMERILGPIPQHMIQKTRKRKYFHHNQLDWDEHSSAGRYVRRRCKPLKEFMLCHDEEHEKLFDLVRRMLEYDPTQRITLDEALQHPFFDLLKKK
Protocol summary: Inhibition of human recombinant CLK4 expressed in Baculovirus system
pIC50: −log10 of the molar value.
Readout: pIC50

[[record]]
compound = "COC(=O)N1CCN([C@H]2CC[C@H](Nc3nc(Nc4cnn(C)c4)nc4ccc(CC#N)nc34)CC2)CC1"
recorded_value = 6.00

[[record]]
compound = "COC(=O)N1CCN([C@H]2CC[C@H](Nc3ncnc4ccc(C#N)cc34)CC2)CC1"
recorded_value = 6.21


---

Protocol summary: Intrinsic permeability in human Caco2 cells
Type: ADME, cell-based
Setup conditions: Caco-2
Readout: Papp (×10⁻⁶ cm/s)

[[record]]
compound = "COC(=O)N1CCN([C@H]2CC[C@H](Nc3nc(Nc4cnn(C)c4)nc4ccc(CC#N)nc34)CC2)CC1"
censoring_operator = "="
recorded_value = 9.3

[[record]]
compound = "COC(=O)N1CCN([C@H]2CC[C@H](Nc3nc(Nc4cnn(C)c4)nc4ccc(C#N)cc34)CC2)CC1"
censoring_operator = "="
recorded_value = 3

[[record]]
compound = "CC(=O)N1CCN([C@H]2CC[C@H](Nc3nc(Nc4cnn(C)c4)nc4ccc(C#N)cc34)CC2)CC1"
censoring_operator = "<"
recorded_value = 0.2

[[record]]
compound = "COC(=O)N1CCN([C@H]2CC[C@H](Nc3nc(Nc4cnn(C)c4)nc4ccc(C)nc34)CC2)CC1"
censoring_operator = "="
recorded_value = 7.9

[[record]]
compound = "N#Cc1ccc2ncnc(N[C@H]3CC[C@H](N4CCOCC4)CC3)c2c1"
censoring_operator = "="
recorded_value = 18

[[record]]
compound = "COC(=O)N1CCN([C@H]2CC[C@H](Nc3ncnc4ccc(C)nc34)CC2)CC1"
censoring_operator = "="
recorded_value = 35

[[record]]
compound = "CC(=O)N1CCN([C@H]2CC[C@H](Nc3ncnc4ccc(C#N)cc34)CC2)CC1"
censoring_operator = "="
recorded_value = 4.2

[[record]]
compound = "COC(=O)N1CCN([C@H]2CC[C@H](Nc3ncnc4ccc(C)cc34)CC2)CC1"
censoring_operator = "="
recorded_value = 28

[[record]]
compound = "COC(=O)N1CCN([C@H]2CC[C@H](Nc3ncnc4ccc(C#N)cc34)CC2)CC1"
censoring_operator = "="
recorded_value = 20


---

Entries and their efflux ratio values follow.
Protocol summary: Efflux ratio in human Caco2 cells
Format: ADME, cell-based
Setup conditions: Caco-2
Readout: efflux ratio

[[record]]
compound = "COC(=O)N1CCN([C@H]2CC[C@H](Nc3ncnc4ccc(C)cc34)CC2)CC1"
readout = "efflux ratio"
recorded_value = 0.7

[[record]]
compound = "CC(=O)N1CCN([C@H]2CC[C@H](Nc3nc(Nc4cnn(C)c4)nc4ccc(C#N)cc34)CC2)CC1"
readout = "efflux ratio"
recorded_value = 323

[[record]]
compound = "COC(=O)N1CCN([C@H]2CC[C@H](Nc3nc(Nc4cnn(C)c4)nc4ccc(CC#N)nc34)CC2)CC1"
readout = "efflux ratio"
recorded_value = 24

[[record]]
compound = "Cn1cc(Nc2nc(N[C@H]3CC[C@H](N4CCOCC4)CC3)c3cc(C#N)ccc3n2)cn1"
readout = "efflux ratio"
recorded_value = 94


---

Protocol summary: Unbound fraction in rat plasma at 37 degC by equilibrium dialysis
Format: ADME, cell-free
Readout: fraction unbound

[[record]]
compound = "COC(=O)N1CCN([C@H]2CC[C@H](Nc3nc(Nc4cnn(C)c4)nc4ccc(CC#N)nc34)CC2)CC1"
recorded_value = 0.23

[[record]]
compound = "COC(=O)N1CCN([C@H]2CC[C@H](Nc3ncnc4ccc(C#N)cc34)CC2)CC1"
recorded_value = 0.05

